Catalogue of k2 (step 2, forward) readings, one per entry.
Target: HIV-1 YU2 gp120 (HIV-1 YU2, UniProt P35961 32-498)
Test: SPR
measurement_type: k2 (step 2, forward)

| binder | measured |
| --- | --- |
| MVN_G43E/Q81K/M83R/G85Q (natural protein) MPNFSHTCSSINYDPDSTILSAECQARDGEWLPTELRLSDHIENIDGELQFGDQNFQETCQDCHLEFGDGEQSVWLVCTCKTRDQEWKSTQILLDSQIDNNDSQLEIG | 0.0063 M⁻¹ s⁻¹ |
| MVN_G43E/M83R (natural protein) MPNFSHTCSSINYDPDSTILSAECQARDGEWLPTELRLSDHIENIDGELQFGDQNFQETCQDCHLEFGDGEQSVWLVCTCQTRDGEWKSTQILLDSQIDNNDSQLEIG | 0.0075 M⁻¹ s⁻¹ |
| MVN_Q81K/G85Q (natural protein) MPNFSHTCSSINYDPDSTILSAECQARDGEWLPTELRLSDHIGNIDGELQFGDQNFQETCQDCHLEFGDGEQSVWLVCTCKTMDQEWKSTQILLDSQIDNNDSQLEIG | 0.0041 M⁻¹ s⁻¹ |
| MVN_Q81K/M83R/G85Q (natural protein) MPNFSHTCSSINYDPDSTILSAECQARDGEWLPTELRLSDHIGNIDGELQFGDQNFQETCQDCHLEFGDGEQSVWLVCTCKTRDQEWKSTQILLDSQIDNNDSQLEIG | 0.0055 M⁻¹ s⁻¹ |
| MVN_Q81K (natural protein) MPNFSHTCSSINYDPDSTILSAECQARDGEWLPTELRLSDHIGNIDGELQFGDQNFQETCQDCHLEFGDGEQSVWLVCTCKTMDGEWKSTQILLDSQIDNNDSQLEIG | 0.0048 M⁻¹ s⁻¹ |
